Source: ChEMBL document CHEMBL3286260

- STUDY TARGET: Alpha-2A adrenergic receptor (Homo sapiens)
// reported pKi for each item listed
// pKi is dimensionless: -log10 of concentration (M)

Problem: I'm curious: which pKi was measured for "CCOc1ccc(N=C2NCCN2)cc1" tested on Alpha-2A adrenergic receptor (Homo sapiens)?
Result: 7.10

Problem: Same again, this time with "CCOc1ccc(NC(=N)NCCO)cc1"
Result: 4.72

Problem: Same again, this time with CCNc1ccc(/N=C2/NCC(C)N2)cc1 (stereo not given)
Result: 4.91

Problem: Same again, this time with CN(C)c1ccc(/N=C2/NCC(c3ccco3)N2)cc1 (stereo not given)
Result: 5.88

Continuing:
Problem: I'm curious: which pKi was measured for c1coc(C2CN/C(=N/c3ccc4c(c3)CCCC4)N2)c1 (stereo not given) tested on Alpha-2A adrenergic receptor (Homo sapiens)?
Result: 6.16

Problem: Same again, this time with "CCCNC(=N)Nc1ccc(N(C)C)cc1"
Result: 5.95

Problem: Same again, this time with "CCCNC(=N)Nc1ccc(NCC)cc1"
Result: 5.08

Problem: Same again, this time with CC1CN/C(=N/c2ccc(N(C)C)cc2)N1 (stereo not given)
Result: 5.48

Problem: Same again, this time with CC1CN/C(=N/c2ccc3c(c2)CCCC3)N1 (stereo not given)
Result: 6.00

Problem: Same again, this time with "N=C(NCCO)Nc1ccc2c(c1)CCCC2"
Result: 5.76

###

- STUDY TARGET: Alpha-2A adrenergic receptor (Homo sapiens, UniProt P08913)
- Sequence (P08913 whole entry): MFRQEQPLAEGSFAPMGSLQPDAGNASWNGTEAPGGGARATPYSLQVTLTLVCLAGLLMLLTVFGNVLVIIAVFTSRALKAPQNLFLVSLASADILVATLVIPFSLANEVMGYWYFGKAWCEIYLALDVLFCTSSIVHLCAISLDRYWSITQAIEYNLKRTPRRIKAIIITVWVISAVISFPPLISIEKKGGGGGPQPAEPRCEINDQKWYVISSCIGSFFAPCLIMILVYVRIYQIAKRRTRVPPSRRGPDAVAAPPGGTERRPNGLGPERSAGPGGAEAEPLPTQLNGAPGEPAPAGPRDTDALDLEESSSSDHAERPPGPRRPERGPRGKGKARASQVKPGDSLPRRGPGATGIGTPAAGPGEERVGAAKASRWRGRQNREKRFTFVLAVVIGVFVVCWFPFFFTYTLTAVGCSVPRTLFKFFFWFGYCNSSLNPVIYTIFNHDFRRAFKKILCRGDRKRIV
ASSAY ENDPOINT: pKi
// pKi is dimensionless: -log10 of concentration (M)

Problem: # query: pKi of entry CCNc1ccc(/N=C2/NCC(c3ccco3)N2)cc1 (configuration not stated)
Result: 5.66

###

- STUDY TARGET: UniProtKB P08913
ASSAY ENDPOINT: Ki (nM)
Give a bare numeral; the unit nM is implied.

// known answers, use as guide
Problem: I'm curious: which Ki was measured for CCOc1ccc(/N=C2/NCC(C)N2)cc1 (stereo unspecified) tested on UniProtKB P08913?
Result: 14100

Problem: Same again, this time with "CCNc1ccc(/N=C(/N)NCc2ccco2)cc1"
Result: 1070

Problem: Same again, this time with "CCOc1ccc(NC(=N)N)cc1"
Result: 141

Problem: Same again, this time with "CCNc1ccc(NC(=N)Nc2ccccc2)cc1"
Result: 4900

Problem: Same again, this time with "CN(C)c1ccc(/N=C(/N)NCc2ccco2)cc1"
Result: 214

Let us examine a further case.
Problem: I'm curious: which Ki was measured for CC1CN/C(=N/c2ccc3c(c2)OCO3)N1 (stereo unspecified) tested on UniProtKB P08913?
Result: 2340
